Test system: antibodies in sera from SARS patients (sera 1a, 1b, 2, 6, 37, 62, London, SARS-yellow, SARS-green)
Type: binding, human
Parameters: unit not given here
PROPERTY_MEASURED: Binding of serum 6 to linear peptides of protein X2
Please give only the number in your answer, with no unit.

Solved cases below.
biopolymer_sequence=QFMMSRRRLLACLCK recorded_value=0.6
biopolymer_sequence=FTTSLSLHKLLQTLV recorded_value=0.6
biopolymer_sequence=TTSLSLHKLLQTLVL recorded_value=0.5
biopolymer_sequence=HRMCKYTQSTALQEL recorded_value=0.5
biopolymer_sequence=HITVSQIQLSLLKVT recorded_value=0.5

Q) Suppose we examine the sequence "TVSQIQLSLLKVTAF" ; what Binding of serum 6 to linear peptides of protein X2 value has been reported?
A) 0.5

Q) Report Binding of serum 6 to linear peptides of protein X2 for "TSLSLHKLLQTLVLK" please.
A) 1.0
